assay: solvent given as SMILES; conditions: in C1COCCO1
Measured emission maximum of individual entries

>  <ITEM_SMILES>
CCCCN1c2ccccc2Sc2cc(/C=C/c3nc4nc5ccccc5nc4s3)ccc21

>  <UNIT>
nm

>  <emission maximum>
640

$$$$
>  <ITEM_SMILES>
O=c1oc2ccccc2cc1-c1nc2ccccc2o1

>  <UNIT>
nm

>  <emission maximum>
443

$$$$
>  <ITEM_SMILES>
O=C1/C(=C\c2ccc3oc4ccccc4c3c2)S(=O)(=O)c2ccccc21

>  <UNIT>
nm

>  <emission maximum>
436

$$$$
>  <ITEM_SMILES>
CC1(C)c2ccccc2N(c2ccc3c(c2)c2cc(N4c5ccccc5C(C)(C)c5ccccc54)ccc2c2nc(C#N)c(C#N)nc32)c2ccccc21

>  <UNIT>
nm

>  <emission maximum>
753.65

$$$$
>  <ITEM_SMILES>
CN(C)c1ccc(C#Cc2ccccc2)cc1

>  <UNIT>
nm

>  <emission maximum>
372.49

$$$$
>  <ITEM_SMILES>
O=C1NC(=O)/C(=C\c2ccccc2O)S1

>  <UNIT>
nm

>  <emission maximum>
418

$$$$
>  <ITEM_SMILES>
COc1cccc(-n2c(-c3ccccc3)nc(C)c2C)c1

>  <UNIT>
nm

>  <emission maximum>
366

$$$$
>  <ITEM_SMILES>
c1ccc2c(-c3ccc(-c4nnc(-c5ccc(-c6nnc(-c7ccc(-c8cccc9ccccc89)s7)o6)cc5)o4)s3)cccc2c1

>  <UNIT>
nm

>  <emission maximum>
434

$$$$
>  <ITEM_SMILES>
N#Cc1c[nH]c2ccccc12

>  <UNIT>
nm

>  <emission maximum>
305

$$$$
>  <ITEM_SMILES>
Nc1ccccc1C(=O)O

>  <UNIT>
nm

>  <emission maximum>
395

$$$$
>  <ITEM_SMILES>
CCCN1C(=O)C(=CC=CC=C2Oc3ccccc3N2CCCS(=O)(=O)[O-])C(=O)N(CCC)C1=S

>  <UNIT>
nm

>  <emission maximum>
584

$$$$

* * *

Measured emission maximum of individual entries
experiment: solvent given as SMILES; settings: in ClC(Cl)Cl

>  <ITEM_SMILES>
Oc1cccc(C2=[N+]3C(=C(c4ccccc4)c4cccn4[B-]3(F)F)C=C2)c1

>  <emission maximum, nm>
553

$$$$
>  <ITEM_SMILES>
COc1ccc(-c2cc3c(s2)=CC2=C(C(F)(F)F)c4cc5sc(-c6ccc(OC)cc6)cc5n4[B-](F)(F)[N+]=32)cc1

>  <emission maximum, nm>
754

$$$$
>  <ITEM_SMILES>
N#Cc1cc2ccccc2oc1=N

>  <emission maximum, nm>
411

$$$$
>  <ITEM_SMILES>
F[B-]1(F)n2c(cc(Br)c2Br)C(c2ccccc2)=C2C=C(Br)C(Br)=[N+]21

>  <emission maximum, nm>
570

$$$$
>  <ITEM_SMILES>
CN(C)c1ccc(/C=C/c2cc[n+](CCCCCCCCCCCC[n+]3ccc(/C=C/c4ccc(N(C)C)cc4)cc3)cc2)cc1

>  <emission maximum, nm>
580

$$$$
>  <ITEM_SMILES>
CN(C)c1ccc(-c2ccc(-c3cc(N4CCCCC4)c(C#N)c4c3-c3ccccc3CC4)s2)cc1

>  <emission maximum, nm>
540

$$$$
>  <ITEM_SMILES>
CN(C)C(=O)c1ccc(-c2nc3ccc(N(C)C)cc3s2)cc1

>  <emission maximum, nm>
472

$$$$
>  <ITEM_SMILES>
O=c1c2cc(-n3c4ccccc4c4ccccc43)ccc2sc2ccc(-n3c4ccccc4c4ccccc43)cc12

>  <emission maximum, nm>
493.5

$$$$
>  <ITEM_SMILES>
CN(C)c1ccc(C#Cc2ccc(-c3nc(C#N)c(C#N)n3C)cc2)cc1

>  <emission maximum, nm>
479

$$$$

* * *

experiment: solvent given as SMILES; settings: in CCCCCCC

>  <ITEM_SMILES>
c1ccc2cc3c(cc2c1)-c1cccc2cc4ccccc4c-3c12

>  <emission maximum (nm)>
471

$$$$
>  <ITEM_SMILES>
c1ccc2c3c(ccc2c1)-c1c2ccccc2cc2cccc-3c12

>  <emission maximum (nm)>
603

$$$$
>  <ITEM_SMILES>
C(=C\c1cnc2ccccc2n1)/c1ccc(N(c2ccccc2)c2ccccc2)cc1

>  <emission maximum (nm)>
461

$$$$
>  <ITEM_SMILES>
C(=C\c1nc(/C=C/c2ccc(N(c3ccccc3)c3ccccc3)cc2)cc(/C=C/c2ccc(N(c3ccccc3)c3ccccc3)cc2)n1)/c1ccccc1

>  <emission maximum (nm)>
464

$$$$
>  <ITEM_SMILES>
c1ccc2cc3c(cc2c1)-c1cccc2c1c-3cc1ccccc12

>  <emission maximum (nm)>
401

$$$$
>  <ITEM_SMILES>
C(/C=C/c1cc2c3c(c1)CCCN3CCC2)=C\c1ccncc1

>  <emission maximum (nm)>
442

$$$$
>  <ITEM_SMILES>
O=[N+]([O-])c1ccc(/C=C/c2c[nH]c3ccccc23)cc1

>  <emission maximum (nm)>
511

$$$$
>  <ITEM_SMILES>
C(=C\c1cnccn1)/c1ccc(N(c2ccccc2)c2ccccc2)cc1

>  <emission maximum (nm)>
433

$$$$
>  <ITEM_SMILES>
COc1ccc(/C=C/c2nc(/C=C/c3ccc(N(c4ccccc4)c4ccccc4)cc3)cc(/C=C/c3ccc(N(c4ccccc4)c4ccccc4)cc3)n2)cc1

>  <emission maximum (nm)>
461

$$$$
>  <ITEM_SMILES>
CN(C)c1ccc(/C=C/c2cc(/C=C/c3ccc(N(C)C)cc3)nc(/C=C/c3ccccc3)n2)cc1

>  <emission maximum (nm)>
453

$$$$
>  <ITEM_SMILES>
Cc1ccccc1/C(C#N)=C/c1ccc(N(C)C)cc1

>  <emission maximum (nm)>
433

$$$$

* * *

test: solvent given as SMILES; conditions: in c1ccc2c(c1)c1ccccc1n2-c1ccc(-c2ccc(-n3c4ccccc4c4ccccc43)cc2)cc1
Label met when emission maximum >= 500 nm; otherwise not met.

>  <ITEM_SMILES>
CC(C)(C)c1ccc2c(c1)c1cc(C(C)(C)C)ccc1n2-c1ccc(-c2ccc3c(c2)C(=O)c2ccc(-c4ccc(-n5c6ccc(C(C)(C)C)cc6c6cc(C(C)(C)C)ccc65)cc4)cc2C3=O)cc1

>  <CATEGORY>
met

$$$$
>  <ITEM_SMILES>
O=S(=O)(c1ccc(-c2ccc(-c3nc4c5ccccc5c5ccccc5c4n3-c3ccccc3)cc2)cc1)c1ccc(-c2ccc(-c3nc4c5ccccc5c5ccccc5c4n3-c3ccccc3)cc2)cc1

>  <CATEGORY>
not met

$$$$
>  <ITEM_SMILES>
O=C1c2ccc(-c3ccc(N(c4ccc(-c5ccccc5)cc4)c4ccc(-c5ccccc5)cc4)cc3)cc2C(=O)c2ccc(-c3ccc(N(c4ccc(-c5ccccc5)cc4)c4ccc(-c5ccccc5)cc4)cc3)cc21

>  <CATEGORY>
met

$$$$
>  <ITEM_SMILES>
CCCCCCN1C(=O)c2cc(-c3ccc(-n4c5ccccc5c5ccccc54)cc3)c(-c3ccc(-n4c5ccccc5c5ccccc54)cc3)cc2C1=O

>  <CATEGORY>
not met

$$$$
>  <ITEM_SMILES>
O=C(c1ccc(N2c3ccccc3Oc3ccccc32)cc1)c1ccc2sc3ccccc3c2c1

>  <CATEGORY>
met

$$$$

* * *

experiment: solvent given as SMILES; details: in C1CCOC1
So basically: is emission maximum under 500 nm? Then YES. Not under? Then NO.

>  <COMPOUND>
COc1ccc2cc(-c3ccc(C)cc3)c(=O)oc2c1

>  <CATEGORY>
YES

$$$$
>  <COMPOUND>
c1cc2ccc1-c1ccc(cc1)-c1ccc(s1)-c1ccc(cc1)-c1ccc(cc1)-c1ccc(s1)-c1ccc(cc1)-c1ccc(cc1)-c1ccc-2s1

>  <CATEGORY>
NO

$$$$
>  <COMPOUND>
CN(C)c1ccc(/C=C2\CC/C(=C\c3ccc(C#N)cc3)C2=O)cc1

>  <CATEGORY>
NO

$$$$
>  <COMPOUND>
OC1(c2ccc(-c3cccs3)s2)CCCCC1

>  <CATEGORY>
YES

$$$$
>  <COMPOUND>
O=C(O)c1ccc2ccc3cccc4ccc1c2c34

>  <CATEGORY>
YES

$$$$
>  <COMPOUND>
Cc1cc(C)c(C2=C(c3c(C)sc(-c4ccc(-c5nc(-c6ccccc6)c(-c6ccccc6)[nH]5)cc4)c3C)C(F)(F)C(F)(F)C2(F)F)s1

>  <CATEGORY>
YES

$$$$
>  <COMPOUND>
CC1=C(C(C)(C)C)C(C)=[N+]2C1=C(C)c1c(C)c(C(C)(C)C)c(C)n1[B-]2(F)F

>  <CATEGORY>
NO

$$$$
>  <COMPOUND>
CC1(C)Oc2c(c3nc4ccccc4nc3c3ccccc23)CC1Br (stereo not drawn)

>  <CATEGORY>
YES

$$$$
>  <COMPOUND>
c1ccc(-c2nc(-c3ccc(-c4nc(-c5ccccc5)c(-c5ccccc5)[nH]4)cc3)[nH]c2-c2ccccc2)cc1

>  <CATEGORY>
YES

$$$$
>  <COMPOUND>
CC(C)(C)c1ccc2oc(-c3ccc(-c4nc5cc(C(C)(C)C)ccc5o4)s3)nc2c1

>  <CATEGORY>
YES

$$$$
>  <COMPOUND>
CCn1c2ccccc2c2cc(C#Cc3cc(C#Cc4ccc5c(c4)c4ccccc4n5CC)nc(N4CCCCC4)n3)ccc21

>  <CATEGORY>
YES

$$$$
>  <COMPOUND>
Cc1cscc1-c1cc2c3cc(-c4cscc4C)c4nc(C(F)(F)C(F)(F)C(F)(F)F)nc5c(-c6cscc6C)cc(c6cc(-c7cscc7C)c7nc(C(F)(F)C(F)(F)C(F)(F)F)nc1c7c26)c3c45

>  <CATEGORY>
NO

$$$$
>  <COMPOUND>
Cc1ccc(C2=C3C=CC(Cl)=[N+]3[B-](F)(F)n3c(Cl)ccc32)cc1

>  <CATEGORY>
NO

$$$$
>  <COMPOUND>
CCCCN1c2ccccc2Sc2cc(/C=C/C3=Nc4ccc5ccccc5c4C3(C)C)ccc21

>  <CATEGORY>
NO

$$$$
>  <COMPOUND>
CCCCCCOc1ccc(/C=C/c2ccc(N(c3ccc(/C=C/c4ccc(OCCCCCC)cc4)cc3)c3ccc(-c4nc5ccccc5nc4-c4ccc(N(c5ccc(/C=C/c6ccc(OCCCCCC)cc6)cc5)c5ccc(/C=C/c6ccc(OCCCCCC)cc6)cc5)cc4)cc3)cc2)cc1

>  <CATEGORY>
NO

$$$$
>  <COMPOUND>
O=S(=O)(c1ccc(-c2ccc(-c3nc4c5ccccc5c5ccccc5c4n3-c3ccccc3)cc2)cc1)c1ccc(-c2ccc(-c3nc4c5ccccc5c5ccccc5c4n3-c3ccccc3)cc2)cc1

>  <CATEGORY>
YES

$$$$
>  <COMPOUND>
COc1ccc(-c2cc3c4c(c2)CCc2cc(-c5ccc(OC)cc5)cc(c2-4)CC3)cc1

>  <CATEGORY>
YES

$$$$
>  <COMPOUND>
CCCCC1(CCCC)c2cc(C#Cc3ccc4ccc5cccc6ccc3c4c56)ccc2-c2ccc(C#Cc3ccc4ccc5cccc6ccc3c4c56)cc21

>  <CATEGORY>
YES

$$$$
>  <COMPOUND>
N#Cc1c(N2CCCCC2)cc(-c2ccc(Br)cc2)c2c1CCc1ccccc1-2

>  <CATEGORY>
YES

$$$$
>  <COMPOUND>
Cc1c(C2=[N+]3C(=Cc4c(C)c5ccccc5n4[B-]3(F)F)c3ccccc32)[nH]c2ccccc12

>  <CATEGORY>
NO

$$$$
>  <COMPOUND>
c1ccc2cc(-n3c4ccccc4c4ccccc43)ccc2c1

>  <CATEGORY>
YES

$$$$
>  <COMPOUND>
N#Cc1cccc2cc[nH]c12

>  <CATEGORY>
YES

$$$$
>  <COMPOUND>
c1ccc2c(c1)-c1ccccc1C21c2ccccc2-c2sc3c(c21)C1(c2ccccc2-c2ccccc21)c1ccccc1-3

>  <CATEGORY>
YES

$$$$
>  <COMPOUND>
c1ccc(-c2nc(-c3ccc(-c4ccc(N(c5ccccc5)c5ccccc5)cc4)cn3)oc2-c2ccccc2)cc1

>  <CATEGORY>
YES

$$$$
>  <COMPOUND>
O=C1c2cccc3c(NCc4ccccn4)c4ccccc4c(c23)C(=O)N1Cc1ccccn1

>  <CATEGORY>
NO

$$$$
>  <COMPOUND>
CC(C)(C)c1ccc(-c2c(-c3ccc(N(c4ccccc4)c4ccccc4)cc3)c(C#N)c(-c3ccc(N(c4ccccc4)c4ccccc4)cc3)c(-c3ccc(C(C)(C)C)cc3)c2-c2ccc(C(C)(C)C)cc2)cc1

>  <CATEGORY>
YES

$$$$
>  <COMPOUND>
OC1(c2ccc(-c3cccs3)s2)CCC(c2ccccc2)CC1 (stereo not drawn)

>  <CATEGORY>
YES

$$$$
>  <COMPOUND>
F[B-]1(F)OC(c2ccccc2)=Nc2sc(-c3ccccc3)n[n+]21

>  <CATEGORY>
YES

$$$$

Entry source: the Deep4Chem optical property database
